Tested on: HepG2
Assay: cytotoxicity call (relative viability < 0.9)
Settings: 10 µM
The whole screen tested about 39,000 compounds, of which about 3,300 (8.5%) were called active. This is one part of a sample in which actives are shown more often than they occur.
Returns: one label drawn from active, inactive

Example entries and their recorded answers appear below.
>  <recordSmiles>
C[C@@H]1CN([C@@H](C)CO)C(=O)c2cc(NC(=O)Nc3ccccc3)ccc2O[C@@H](C)CCCCO[C@H]1CN(C)Cc1ccc(Cl)c(Cl)c1

>  <assignedLabel>
inactive

$$$$
>  <recordSmiles>
C[C@H](CO)N1C[C@H](C)[C@H](CN(C)Cc2ccc(Cl)c(Cl)c2)OCCCC[C@H](C)Oc2ccc(NC(=O)Nc3ccccc3)cc2C1=O

>  <assignedLabel>
inactive

$$$$
>  <recordSmiles>
C[C@@H]1CN([C@H](C)CO)C(=O)c2cc(NC(=O)Nc3ccccc3)ccc2O[C@@H](C)CCCCO[C@@H]1CN(C)Cc1ccc(Cl)c(Cl)c1

>  <assignedLabel>
active

$$$$
>  <recordSmiles>
C[C@@H]1CCCCO[C@H](CN(C)Cc2ccc(Cl)c(Cl)c2)[C@@H](C)CN([C@@H](C)CO)C(=O)c2cc(NC(=O)Nc3ccccc3)ccc2O1

>  <assignedLabel>
inactive

$$$$
>  <recordSmiles>
C[C@@H]1CCCCO[C@H](CN(C)Cc2ccc(Cl)c(Cl)c2)[C@H](C)CN([C@@H](C)CO)C(=O)c2cc(NC(=O)Nc3ccccc3)ccc2O1

>  <assignedLabel>
active

$$$$

Which outcome was entered for the compound "Cc1ccc(S(=O)(=O)N2CCOCC2)cc1NC(=O)CN1C(=O)CN(C)C1=O" in this test? inactive

Assay outcome for "C[C@@H]1CCCCO[C@@H](CN(C)Cc2ccc(Cl)c(Cl)c2)[C@H](C)CN([C@@H](C)CO)C(=O)c2cc(NC(=O)Nc3ccccc3)ccc2O1" : what was it? inactive

Recorded values, source the antibiotic and cytotoxicity screens of Wong et al. (2023).
